collision cross section values by entry
Experiment: collision cross section of modified peptide (TIMS, N2, iRT-aligned); higher = larger / more extended gas-phase ion
Settings: charge state: 2; modification: Crotonyl
Number in Å², nothing else.

Below, 3 sequences whose answers are already recorded.
IPQEKCILQTDVK [_IPQEK(Crotonyl)CILQTDVK_] ... 433.54
TLDEILQEKK [_TLDEILQEK(Crotonyl)K_] ... 381.71
SITHSTVGSKGEK [_SITHSTVGSK(Crotonyl)GEK_] ... 402.71

Look up collision cross section: DYSAPVNFISAGLKK [_DYSAPVNFISAGLK(Crotonyl)K_]
438.67

Look up collision cross section: ALLQAKASGK [_ALLQAK(Crotonyl)ASGK_]
351.6

Look up collision cross section: DYSSGFGGKYGVQADR [_DYSSGFGGK(Crotonyl)YGVQADR_]
437.04

Look up collision cross section: STGLELETPSLVPVKK [_STGLELETPSLVPVK(Crotonyl)K_]
437.59

Look up collision cross section: LLFSNTAAQKLR [_LLFSNTAAQK(Crotonyl)LR_]
404.43

Look up collision cross section: LTSLNVKYNNDK [_LTSLNVK(Crotonyl)YNNDK_]
414.39

Look up collision cross section: VGLQVVAVKAPGFGDNR [_VGLQVVAVK(Crotonyl)APGFGDNR_]
449.86

Look up collision cross section: GFALVGVGSEASSKK [_GFALVGVGSEASSK(Crotonyl)K_]
448.38

###

collision cross section values by entry
Assay: collision cross section of unmodified peptide (TIMS, N2, iRT-aligned); higher = larger / more extended gas-phase ion
Details: charge state: 3
Number in Å², nothing else.

Below, 4 sequences whose answers are already recorded.
EVVKPVPITSPAVSK ... 534.95
STNVTVAAARGIK ... 480.75
PASGAGAGAGAGKR ... 457.42
VPGVGLPGVYPGGVLPGAR ... 532.89

Read the next record carefully.
Look up collision cross section: RGATPPAPPR
461.07

###

Assay: collision cross section of modified peptide (TIMS, N2, iRT-aligned); higher = larger / more extended gas-phase ion
Conditions: charge state: 2; modification: Biotin
result.type: collision cross section (Å²)
Number in Å², nothing else.

Below, 10 sequences whose answers are already recorded.
DASTLQSQKAEGTGDAK [_DASTLQSQK(Biotin)AEGTGDAK_] ... 450.36
GETASKLQSEISR [_GETASK(Biotin)LQSEISR_] ... 422.42
TLQKQSVVYGGK [_TLQK(Biotin)QSVVYGGK_] ... 406.33
VETTVTSLKTK [_VETTVTSLK(Biotin)TK_] ... 412.03
FSAYIKNSNPALNDNLEK [_FSAYIK(Biotin)NSNPALNDNLEK_] ... 499.7
ITASLCDLKSR [_ITASLCDLK(Biotin)SR_] ... 401.02
DTPTSAGPNSFNKGK [_DTPTSAGPNSFNK(Biotin)GK_] ... 428.73
SLFFGGKGAPLQR [_SLFFGGK(Biotin)GAPLQR_] ... 419.13
DVNAAIAAIKTK [_DVNAAIAAIK(Biotin)TK_] ... 423.85
AGPNASIISLKSDK [_AGPNASIISLK(Biotin)SDK_] ... 431.71

Look up collision cross section: LGVATVAKGVCGACK [_LGVATVAK(Biotin)GVCGACK_]
431.82
